Parameter solubility thermodynamic: see the listing below.
# TEST PROTOCOL: Lyophilisation solubility assay (Lysa)
# Format: physicochemical
# STUDY CONDITIONS: phosphate buffer, pH 6.5, aqueous buffer, thermodynamic from solid

Record excerpt, results attached:
| MOLECULE | PARAMETER | RESULT |
| --- | --- | --- |
| COC(=O)C1=C(CN2CCO[C@H](C)[C@H]2C(=O)O)NC(c2nccs2)=N[C@H]1c1cccc(F)c1Cl | solubility thermodynamic | > 642 µg/mL |
| COC(=O)C1=C(CN2CCOC[C@H]2C(=O)O)NC(c2nccs2)=N[C@H]1c1ccccc1Br | solubility thermodynamic | > 642 µg/mL |
| COC(=O)C1=C(CN2CC(F)(F)C[C@H]2C(=O)O)NC(c2ncccc2C)=N[C@H]1c1ccc(F)cc1Cl | solubility thermodynamic | 656 µg/mL |
| COC(=O)C1=C(CN2CC(F)(F)C[C@H]2C(=O)O)NC(c2nc(C)co2)=N[C@H]1c1ccc(F)cc1Cl | solubility thermodynamic | > 627 µg/mL |

Q: Quick one: solubility thermodynamic for `CCOC(=O)C1=C(CN2CCOC[C@H]2C(=O)O)NC(c2nccs2)=N[C@H]1c1ccc(F)c(F)c1C` ?
A: > 628 µg/mL

Q: Look at this molecule and give its reported solubility thermodynamic. COC(=O)C1=C(CN2CC(F)(F)C[C@H]2C(=O)O)NC(c2nc(C)cn2C)=NC1c1ccc(F)cc1Cl (stereo partly drawn)
A: 683 µg/mL

Q: Item `CCOC(=O)C1=C(CN2CCOC[C@H]2C(=O)O)NC(c2cccc(C)n2)=N[C@H]1c1ccc(F)cc1Cl` has what recorded solubility thermodynamic?
A: > 593 µg/mL

Q: Value lookup for solubility thermodynamic; key = `COC(=O)C1=C(CN2CC(F)(F)C[C@H]2C(=O)O)NC(c2nccn2C)=N[C@H]1c1ccc(F)cc1Cl`
A: 632 µg/mL

Q: Entry under review: `CCOC(=O)C1=C(CN2CCOC[C@H]2C(=O)O)NC(c2nccs2)=N[C@H]1c1cccc(F)c1Br` . Reported solubility thermodynamic?
A: > 669 µg/mL

Q: So what's the measured solubility thermodynamic for this one? `COC(=O)C1=C(CN2CCOC[C@@]2(C)C(=O)O)NC(c2nccs2)=N[C@H]1c1ccc(F)c(F)c1Cl`
A: > 653 µg/mL
